Tested on: ACVR2A
Settings: concentration: 1 μM, replicates: in singlicate; n = 1;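 further: KINOMEscan kinase panel screen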
# maps each entry to its %Inh
Reply with just the number (in %).

Check out these entries, answers already filled in.
- molecule: "CNc1ncnc2[nH]ncc12"
  %Inh (%): 4
- molecule: "CCc1ccnc(/C=C/c2n[nH]c3cc(Sc4ccccc4C(=O)NC)ccc23)c1"
  %Inh (%): 0
- molecule: "O=C1NC(=O)C(N2CCc3ccccc32)=C1c1cccc(Cl)c1"
  %Inh (%): 0
- molecule: "COc1ccc(Nc2nccc(N3CCC(NC(=O)Nc4cc(C)ccc4C)C3)n2)cc1 (stereo not drawn)"
  %Inh (%): 0
- molecule: "Nc1nccc(-c2c(-c3ccc(F)cc3)ncn2C2CCN(CC(F)(F)F)CC2)n1"
  %Inh (%): 0
- molecule: "COc1ccc(CNC(=O)NC2CCN(c3ccnc(Nc4ccc(OC)cc4)n3)C2)cc1 (stereo not drawn)"
  %Inh (%): 0
- molecule: "O=C1Cc2cc(Nc3nc(NCc4cccc(S(=O)(=O)C(F)(F)F)c4)ncc3C(F)(F)F)ccc2N1"
  %Inh (%): 0
- molecule: "COc1ccc(Nc2ncc(C#N)c(Nc3ccccc3C(N)=O)n2)cc1N1CCN(C)CC1.Cl"
  %Inh (%): 0
- molecule: "Cc1nnc(-c2ccc(C)c(-c3ccc(C(=O)Nc4ccc(NS(C)(=O)=O)cc4)cc3)c2)o1"
  %Inh (%): 0
- molecule: "COC(=O)Nc1nc2cc(Oc3ccc(NC(=O)Nc4cc(F)ccc4F)cc3)ccc2[nH]1.Cl"
  %Inh (%): 0

Let me check: C[C@@H](Oc1cc(-n2cnc3ccc(NC(=O)NC(C)(C)C)cc32)sc1C(N)=O)c1ccccc1Cl , system ACVR2A, measured %Inh is 0

Let me check: Cc1cccc(Cn2ccn3c(=O)cc(N4CCOCC4)nc23)c1 , system ACVR2A, measured %Inh is 0

Let me check: N#Cc1ccc(-c2cc(-c3c[nH]nc3-c3ccccn3)ccn2)cc1 , system ACVR2A, measured %Inh is 0

Let me check: CSc1ccc(-c2cc3ncnc(SCC(=O)O)c3s2)cc1 , system ACVR2A, measured %Inh is 0

Let me check: O=C(Nc1cccc(-c2nn3ncccc3c2-c2ccnc(Nc3cccc(C(F)(F)F)c3)n2)c1)c1c(F)cccc1F , system ACVR2A, measured %Inh is 0

Let me check: COc1cc(Nc2nccc(N3CCC(NC(=O)c4cccc(NC(C)=O)c4)C3)n2)cc(OC)c1OC (stereo not drawn) , system ACVR2A, measured %Inh is 17

Let me check: Cc1nnc(-c2ccc3ncc(-c4ccc(S(C)=O)cc4)n3c2)o1 (stereo not drawn) , system ACVR2A, measured %Inh is 0

Let me check: CCCCCc1nc2c(N)ncnc2n1CCCCC , system ACVR2A, measured %Inh is 0

Let me check: COc1ccc(S(=O)(=O)NC2CCN(c3cc(C)nc(Nc4cccc(C#N)c4)n3)CC2)cc1.O=C(O)C(F)(F)F , system ACVR2A, measured %Inh is 0

###

# maps each entry to its %Inh
Test system: CAMK2G
Details: concentration: 1 μM, replicates: in singlicate; n = 1
Reply with just the number (in %).

Check out these entries, answers already filled in.
- compound: "Cc1ccc(C(=O)NCC(N)=O)cc1-n1c(C)cc(OCc2ccc(F)cc2F)c(Br)c1=O"
  %Inh, %: 0
- compound: "CSc1ccc(-c2cc3ncnc(SCC(=O)O)c3s2)cc1"
  %Inh, %: 0
- compound: "Cc1c2ccc(N(C)c3ccnc(Nc4cccc(S(N)(=O)=O)c4)n3)cc2nn1Cc1ccccc1.Cl.Cl [GW787226]"
  %Inh, %: 0

Lab note: measured %Inh of COC(=O)Nc1nc2cc(Oc3ccc(NC(=O)Nc4cc(F)ccc4F)cc3)ccc2[nH]1.Cl [GW701424] was 11

###

System: CSNK1A1L
Conditions: concentration: 1 μM, replicates: in singlicate; n = 1
observable: %Inh (%)
Reply with just the number (in %).

Check out these entries, answers already filled in.
- molecule: "Cc1cccc(-c2nc(Nc3ccc4ncsc4c3)c3ccccc3n2)n1"
  display.unit: "%"
  %Inh: 0
- molecule: "CN(C1=C(c2ccccc2)C(=O)NC1=O)c1ccccc1"
  display.unit: "%"
  %Inh: 0
- molecule: "c1ccc(-c2n[nH]cc2-c2ccnc3ccccc23)nc1"
  display.unit: "%"
  %Inh: 19
- molecule: "Cc1cn2c(=O)cc(N3CCOCC3)nc2n1Cc1cccc(Cl)c1Cl"
  display.unit: "%"
  %Inh: 29
- molecule: "O=C(c1ccc(-c2cc(-c3c[nH]nc3-c3ccccn3)ccn2)cc1)N1CCOCC1"
  display.unit: "%"
  %Inh: 0
- molecule: "Cc1cccc(Cn2ccn3c(=O)cc(N4CCOCC4)nc23)c1"
  display.unit: "%"
  %Inh: 18
- molecule: "COCCNC(=O)c1ccc(-c2cc(C(=O)NC3CC3)cc(F)c2C)cc1"
  display.unit: "%"
  %Inh: 5
- molecule: "COc1cc(Nc2nccc(N3CCC(NC(=O)c4cccc(NC(C)=O)c4)C3)n2)cc(OC)c1OC (stereo not drawn)"
  display.unit: "%"
  %Inh: 4
- molecule: "O=c1cc(N2CCOCC2)nc2n(Cc3cccc(C(F)(F)F)c3)ccn12"
  display.unit: "%"
  %Inh: 16
- molecule: "COc1ccc(Nc2ncc(C#N)c(Nc3ccccc3C(N)=O)n2)cc1N1CCN(C)CC1.Cl"
  display.unit: "%"
  %Inh: 97.3

Let me check: Cc1cccc(-c2nc(-c3ccc(S(C)(=O)=O)cc3)sc2-c2ccncc2)c1 , system CSNK1A1L, measured %Inh is 9

Let me check: COc1cc2c(cc1OC[C@@H](O)CO)ncc1c3ccc(C#N)cc3[nH]c21 , system CSNK1A1L, measured %Inh is 0

Let me check: N#Cc1c(N2CCOCC2)sc(-c2ccn[nH]2)c1-c1ccc(Cl)cc1 , system CSNK1A1L, measured %Inh is 0

Let me check: Fc1ccc(-c2ncn(CCCN3CCOCC3)c2-c2cccnc2)cc1 , system CSNK1A1L, measured %Inh is 0

Let me check: Fc1ccc(-c2ncn(CCCN3CCOCC3)c2-c2ccccn2)cc1 , system CSNK1A1L, measured %Inh is 0

Let me check: NCC(NC(=O)c1cc(-c2cn[nH]c2)c(-c2ccnc3[nH]ccc23)s1)c1ccccc1.O=C(O)C(F)(F)F.O=C(O)C(F)(F)F (stereo not drawn) , system CSNK1A1L, measured %Inh is 87

Let me check: NS(=O)(=O)c1cccc(-c2ccc3ncc(N4CCOCC4)nc3c2)c1 , system CSNK1A1L, measured %Inh is 0

Let me check: Cc1ccc(NC(=O)c2ccnc(N3CCN(C)CC3)c2)cc1-c1ccc(C(=O)NCC2CC2)cc1 , system CSNK1A1L, measured %Inh is 0

###

System: DAPK3
Conditions: concentration: 1 μM, replicates: in singlicate; n = 1
observable: %Inh (%)
Reply with just the number (in %).

Check out these entries, answers already filled in.
- compound: "Cc1nnc(-c2ccc(C)c(-c3ccc(C(=O)Nc4ccc(NS(C)(=O)=O)cc4)cc3)c2)o1"
  %Inh, %: 18
- compound: "CN1c2ccc(NCc3ccc(F)cc3)cc2-c2c(cnn2C)S1(=O)=O"
  %Inh, %: 15
- compound: "O=C(NOCC1CC1)c1ccc(F)c(F)c1Nc1ccc(I)cc1Cl"
  %Inh, %: 0

Lab note: measured %Inh of O=C(NCCCN1CCOCC1)c1cccc(Nc2nccc(Nc3ccc(Oc4ccccc4)cc3)n2)c1 was 81

Lab note: measured %Inh of CN(C(=O)c1ccc(-c2cc(-c3c[nH]nc3-c3ccccn3)ccn2)cc1)C1CCOCC1 was 0

Lab note: measured %Inh of Fc1ccc(-c2ncn(CCCN3CCOCC3)c2-c2cccnc2)cc1 was 28

Lab note: measured %Inh of NCC(NC(=O)c1cc(-c2cn[nH]c2)c(-c2ccnc3[nH]ccc23)s1)c1ccccc1.O=C(O)C(F)(F)F.O=C(O)C(F)(F)F (centres unmarked) was 87

Lab note: measured %Inh of O=C(Nc1n[nH]c2cc(-c3cccc(F)c3)ccc12)C1CC1 was 0

###

Test system: DDR2
Settings: concentration: 1 μM, replicates: in singlicate; n = 1
Kindly apply the following: y if %Inh is less than 8%, n in every other case.

Worked examples, 10 compounds total:
- compound: "COc1cc(Nc2nccc(N3CCC(NC(=O)c4cccc(NC(C)=O)c4)C3)n2)cc(OC)c1OC (stereo not drawn) [GSK1379754]"
  class.label: "y"
- compound: "N#Cc1c(N2CCOCC2)sc(-c2ccn[nH]2)c1-c1ccc(Cl)cc1"
  class.label: "y"
- compound: "NS(=O)(=O)c1cccc(-c2ccc3nccc(-c4cccc(S(N)(=O)=O)c4)c3c2)c1 [GW867253]"
  class.label: "n"
- compound: "Cc1c(Cn2c(C)nn3c(=O)cc(N4CCOC(C)C4)nc23)cccc1C(F)(F)F (stereo not drawn) [GSK2344444]"
  class.label: "y"
- compound: "NCC(NC(=O)c1cc(-c2cn[nH]c2)c(-c2ccnc3[nH]ccc23)s1)c1ccccc1.O=C(O)C(F)(F)F.O=C(O)C(F)(F)F (stereo not drawn) [GSK1325775]"
  class.label: "n"
- compound: "Cn1cc(-c2ccc3c(c2)CCN3C(=O)Cc2ccccc2Cl)c2c(N)ncnc21 [GSK2608885]"
  class.label: "n"
- compound: "Cc1nnc(-c2ccc3occ(-c4ccc(C(C)O)cc4)c3c2)o1 (stereo not drawn)"
  class.label: "n"
- compound: "CN1c2ccc(NCc3ccc(F)cc3)cc2-c2c(cnn2C)S1(=O)=O"
  class.label: "n"
- compound: "Nc1nccc(-c2c(-c3ccc(F)cc3)ncn2C2CCN(CC(F)(F)F)CC2)n1 [SB-236560]"
  class.label: "n"
- compound: "c1ccc(-c2cc(-c3c[nH]nc3-c3ccccn3)ccn2)cc1 [GW576604]"
  class.label: "n"

Now examine the next entry.
Quick check: %Inh of O=c1cc(N2CCOCC2)nc2n(Cc3cccc4ccccc34)ccn12 [GSK2333389] under 8%?
y
